Provenance of the data: PubChem BioAssay AID1996

This section presents molecules with their documented solubility kinetic values.
Test Context: buffer; pH 7.4; 200.0 µM

Molecule	solubility kinetic
Cc1cc(C(=O)N2CCN(c3ccccc3Cl)CC2)c(C)o1	> 47.8 µg/mL
O=C(NCc1cccnc1)C(=O)NCC(c1ccco1)N1CCOCC1 (centres undefined)	> 53.8 µg/mL
O=C(CSc1ccccn1)NCc1ccc2c(c1)OCO2	> 45.4 µg/mL
O=C(CN1CCOCC1)Nc1ccc(NC(=O)c2ccccc2F)cc1	> 53.6 µg/mL
C=CC[C@H]1CC(C)=C[C@H](CC=C)[NH2+]1.[Cl-]	> 32.1 µg/mL
Cn1c(=O)c2c(nc(NC3CCCC3)n2C)n(C)c1=O	> 41.6 µg/mL
Cc1cc(C)c(S(=O)(=O)NCc2csc(C)n2)c(C)c1	> 46.6 µg/mL
CCc1nc(SCC(=O)Nc2ccc(N(C)C)cc2)n[nH]1	> 45.8 µg/mL
CC(=O)N1CCC(C(=O)Nc2ccc3c(c2)CCC3)CC1	> 43 µg/mL
Cn1ncc(Br)c1C(=O)N1CCCCCC1	> 42.9 µg/mL
COC(=O)c1c(NC(C)=O)sc(C(=O)N2CCOCC2)c1C	> 49 µg/mL
CCn1cc(S(=O)(=O)NC2CCCCC2)cn1	> 38.6 µg/mL
Cc1cc(=O)[nH]c(SCC(=O)Nc2ccc(F)cc2)c1C#N	> 47.6 µg/mL
C=CCNc1nnc(Sc2ncccc2[N+](=O)[O-])s1	> 44.3 µg/mL
